- TESTED TARGET: T1, PRPF40A WW12 (tandem WW domains, residues 141–236) (Homo sapiens, UniProt O75400)
- T1 construct: WW12 141–236, WW12long 141–248, and N-ext-WW12 56–236; 6xHis-TEV site (N, cleaved yes); made in house; host or cells: Escherichia coli BL21(DE3)
- T1 sequence (O75400 141-236): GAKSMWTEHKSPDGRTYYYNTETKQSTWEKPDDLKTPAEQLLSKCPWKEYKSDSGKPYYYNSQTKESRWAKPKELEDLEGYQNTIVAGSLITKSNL
- MEASUREMENT NOTES: ITC of PRPF40A WW12 with GB1-tagged proline-rich peptides and constructs
- Format: binding
- ASSAY CONDITIONS: source data of Fig. 4C,D; ITC as E4; individual value 1; read-out: Kd (mM), Individual values
QUANTITY NAME: Kd
Give the figure together with its unit, number first.

[
  {
    "MOLECULE": "SF3A1 C-ter Pro: GB1-tagged SF3A1 construct, residues 552–683 (protein, left off: His6, N-terminal, state not stated | GB1, N-terminal, kept) EIPQQPPPPSSATNIPSSAPPITSVPRPPTMPPPVRTTVVSAVPVMPRPPMASVVRLPPGSVIAPMPPIIHAPRINVVPMPPSAPPIMAPRPPPMIVPTAFVPAPPVAPVPAPAPMPPVHPPPPMEDEPTSK",
    "QUANTITY NAME": "Kd",
    "RESULT": "0.0238 mM"
  }
]

Now for the molecule whose Kd we want.
Challenge: Looking for the measured Kd of SF1 Pro BC: GB1-tagged SF1 construct, residues 468–594 (protein, left off: His6, N-terminal, state not stated | GB1, N-terminal, kept) GMMPPPPMGMMPPPPPPPSGQPPPPPSGPLPPWQQQQQQPPPPPPPSSSMASSTPLPWQQNTTTTTTSAGTGSIPPWQQQQAAAAASPGAPQMQGNPTMVPLPPGVQPPLPPGAPPPPPPPPPGSAG , can you help?
Response given: 0.00363 mM
